MIC reference
- System: Fusarium solani
- test_details: Antifungal activity against Fusarium solani after 48 hrs by microdilution susceptibility method
- Assay type: functional
Entry rule: numbers only, all in µg/mL.

Some solved entries appear below for comparison.
Fill in the recorded MIC for this compound, with Fusarium solani as test system: CC(=O)N1CCN(c2ccc(OCC3COC(Cn4ccnc4)(c4ccc(Cl)cc4Cl)O3)cc2)CC1 (centres undefined)
12.5

Fill in the recorded MIC for this compound, with Fusarium solani as test system: `Nn1c(S)nnc1CS(=O)(=O)C1=NNC[C@@H]1c1ccc(Cl)cc1`
25

Fill in the recorded MIC for this compound, with Fusarium solani as test system: `O=S(=O)(Cc1nnc(S)s1)C1=NNC[C@@H]1c1ccc(Cl)cc1`
100

Attention now shifts to the item below.
Fill in the recorded MIC for this compound, with Fusarium solani as test system: `Nn1c(S)nnc1CS(=O)(=O)C1=NNC[C@@H]1c1ccccc1`
100

====

zone of inhibition at 200 µg/disc reference
- Tested on: Escherichia coli
- test_details: Antibacterial activity against Escherichia coli at 200 ug after 24 hrs by agar disc-diffusion method
- Format: functional
- condition_context: read-out: IZ

Some solved entries appear below for comparison.
Fill in the recorded zone of inhibition at 200 µg/disc for this molecule, with Escherichia coli as test system: `Nn1c(S)nnc1CS(=O)(=O)C1=NNC[C@@H]1c1ccccc1`
25 mm

Fill in the recorded zone of inhibition at 200 µg/disc for this molecule, with Escherichia coli as test system: `Nn1c(S)nnc1CS(=O)(=O)C1=NNC[C@@H]1c1ccc(Cl)cc1`
25 mm

Fill in the recorded zone of inhibition at 200 µg/disc for this molecule, with Escherichia coli as test system: `O=S(=O)(Cc1nnc(S)o1)C1=NNC[C@@H]1c1ccc(Cl)cc1`
13 mm

More entries:
Fill in the recorded zone of inhibition at 200 µg/disc for this molecule, with Escherichia coli as test system: `Cc1ccc([C@H]2CNN=C2S(=O)(=O)Cc2nnc(S)n2N)cc1`
26 mm

Fill in the recorded zone of inhibition at 200 µg/disc for this molecule, with Escherichia coli as test system: `O=S(=O)(Cc1nnc(S)s1)C1=NNC[C@@H]1c1ccc(Cl)cc1`
27 mm

Fill in the recorded zone of inhibition at 200 µg/disc for this molecule, with Escherichia coli as test system: `O=S(=O)(Cc1nnc(S)s1)C1=NNC[C@@H]1c1ccccc1`
20 mm

Fill in the recorded zone of inhibition at 200 µg/disc for this molecule, with Escherichia coli as test system: `O=S(=O)(Cc1nnc(S)o1)C1=NNC[C@@H]1c1ccccc1`
18 mm

Fill in the recorded zone of inhibition at 200 µg/disc for this molecule, with Escherichia coli as test system: `Cc1ccc([C@H]2CNN=C2S(=O)(=O)Cc2nnc(S)s2)cc1`
21 mm

Fill in the recorded zone of inhibition at 200 µg/disc for this molecule, with Escherichia coli as test system: `Cc1ccc([C@H]2CNN=C2S(=O)(=O)Cc2nnc(S)o2)cc1`
14 mm

Fill in the recorded zone of inhibition at 200 µg/disc for this molecule, with Escherichia coli as test system: `O=C(N[C@H](CO)[C@H](O)c1ccc([N+](=O)[O-])cc1)C(Cl)Cl`
44 mm

====

- Tested on: Aspergillus niger
- test_details: Antifungal activity against Aspergillus niger at 100 ug after 48 hrs by agar disc-diffusion method
- Assay type: functional
- condition_context: read-out: IZ
zone of inhibition at 100 µg/disc reference
Record the result as a number with its unit.

Some solved entries appear below for comparison.
Can you share its zone of inhibition at 100 µg/disc? I mean this molecule: `O=S(=O)(Cc1nnc(S)o1)C1=NNC[C@@H]1c1ccccc1`
16 mm

Can you share its zone of inhibition at 100 µg/disc? I mean this molecule: `Nn1c(S)nnc1CS(=O)(=O)C1=NNC[C@@H]1c1ccc(Cl)cc1`
36 mm

Can you share its zone of inhibition at 100 µg/disc? I mean this molecule: `O=S(=O)(Cc1nnc(S)o1)C1=NNC[C@@H]1c1ccc(Cl)cc1`
14 mm

More entries:
Can you share its zone of inhibition at 100 µg/disc? I mean this molecule: `Cc1ccc([C@H]2CNN=C2S(=O)(=O)Cc2nnc(S)o2)cc1`
17 mm

Can you share its zone of inhibition at 100 µg/disc? I mean this molecule: `Nn1c(S)nnc1CS(=O)(=O)C1=NNC[C@@H]1c1ccccc1`
36 mm

====

- System: Klebsiella pneumoniae
- test_details: Antibacterial activity against Klebsiella pneumoniae after 24 hrs by microdilution susceptibility method
- Assay type: functional
endpoint_label: MIC (µg/mL)
Entry rule: numbers only, all in µg/mL.

Some solved entries appear below for comparison.
Can you share its MIC? I mean this compound: `O=C(N[C@H](CO)[C@H](O)c1ccc([N+](=O)[O-])cc1)C(Cl)Cl`
12.5

Can you share its MIC? I mean this compound: `O=S(=O)(Cc1nnc(S)s1)C1=NNC[C@@H]1c1ccc(Cl)cc1`
200

Can you share its MIC? I mean this compound: `Nn1c(S)nnc1CS(=O)(=O)C1=NNC[C@@H]1c1ccc(Cl)cc1`
50

Attention now shifts to the item below.
Can you share its MIC? I mean this compound: `Nn1c(S)nnc1CS(=O)(=O)C1=NNC[C@@H]1c1ccccc1`
100

====

- Tested on: Curvularia lunata
- test_details: Antifungal activity against Curvularia lunata after 48 hrs by microdilution susceptibility method
- Type: functional
endpoint_label: MIC (µg/mL)
Entry rule: numbers only, all in µg/mL.

Some solved entries appear below for comparison.
Can you share its MIC? I mean this compound: CC(=O)N1CCN(c2ccc(OCC3COC(Cn4ccnc4)(c4ccc(Cl)cc4Cl)O3)cc2)CC1 (centres undefined) [KETOCONAZOLE]
6.25

Can you share its MIC? I mean this compound: `Nn1c(S)nnc1CS(=O)(=O)C1=NNC[C@@H]1c1ccc(Cl)cc1`
12.5

Can you share its MIC? I mean this compound: `O=S(=O)(Cc1nnc(S)s1)C1=NNC[C@@H]1c1ccc(Cl)cc1`
100

Attention now shifts to the item below.
Can you share its MIC? I mean this compound: `Nn1c(S)nnc1CS(=O)(=O)C1=NNC[C@@H]1c1ccccc1`
100

====

- System: Curvularia lunata
- test_details: Antifungal activity against Curvularia lunata at 100 ug after 48 hrs by agar disc-diffusion method
- Type: functional
- condition_context: read-out: IZ
zone of inhibition at 100 µg/disc reference
Record the result as a number with its unit.

Some solved entries appear below for comparison.
Can you share its zone of inhibition at 100 µg/disc? I mean this compound: `Nn1c(S)nnc1CS(=O)(=O)C1=NNC[C@@H]1c1ccccc1`
37 mm

Can you share its zone of inhibition at 100 µg/disc? I mean this compound: `Cc1ccc([C@H]2CNN=C2S(=O)(=O)Cc2nnc(S)s2)cc1`
20 mm

Can you share its zone of inhibition at 100 µg/disc? I mean this compound: `O=S(=O)(Cc1nnc(S)o1)C1=NNC[C@@H]1c1ccc(Cl)cc1`
16 mm

More entries:
Can you share its zone of inhibition at 100 µg/disc? I mean this compound: `Cc1ccc([C@H]2CNN=C2S(=O)(=O)Cc2nnc(S)n2N)cc1`
34 mm

Can you share its zone of inhibition at 100 µg/disc? I mean this compound: `Nn1c(S)nnc1CS(=O)(=O)C1=NNC[C@@H]1c1ccc(Cl)cc1`
39 mm

Can you share its zone of inhibition at 100 µg/disc? I mean this compound: `O=S(=O)(Cc1nnc(S)s1)C1=NNC[C@@H]1c1ccc(Cl)cc1`
23 mm

Can you share its zone of inhibition at 100 µg/disc? I mean this compound: `O=S(=O)(Cc1nnc(S)o1)C1=NNC[C@@H]1c1ccccc1`
17 mm

Can you share its zone of inhibition at 100 µg/disc? I mean this compound: `Cc1ccc([C@H]2CNN=C2S(=O)(=O)Cc2nnc(S)o2)cc1`
16 mm

Can you share its zone of inhibition at 100 µg/disc? I mean this compound: CC(=O)N1CCN(c2ccc(OCC3COC(Cn4ccnc4)(c4ccc(Cl)cc4Cl)O3)cc2)CC1 (stereo not given) [KETOCONAZOLE]
41 mm

Can you share its zone of inhibition at 100 µg/disc? I mean this compound: `O=S(=O)(Cc1nnc(S)s1)C1=NNC[C@@H]1c1ccccc1`
26 mm

====

MIC reference
- Test system: Escherichia coli
- test_details: Antibacterial activity against Escherichia coli after 24 hrs by microdilution susceptibility method
- Assay type: functional
Entry rule: numbers only, all in µg/mL.

Can you share its MIC? I mean this compound: `Nn1c(S)nnc1CS(=O)(=O)C1=NNC[C@@H]1c1ccc(Cl)cc1`
50

Can you share its MIC? I mean this compound: `O=S(=O)(Cc1nnc(S)s1)C1=NNC[C@@H]1c1ccc(Cl)cc1`
200

Can you share its MIC? I mean this compound: `O=C(N[C@H](CO)[C@H](O)c1ccc([N+](=O)[O-])cc1)C(Cl)Cl`
6.25

Can you share its MIC? I mean this compound: `Nn1c(S)nnc1CS(=O)(=O)C1=NNC[C@@H]1c1ccccc1`
50

These data points were gathered from ChEMBL document CHEMBL1156668.
